meta.source: patent US10519154B2

system: human M2 receptor (Homo sapiens, UniProt P08172)
Sequence (P08172 whole entry): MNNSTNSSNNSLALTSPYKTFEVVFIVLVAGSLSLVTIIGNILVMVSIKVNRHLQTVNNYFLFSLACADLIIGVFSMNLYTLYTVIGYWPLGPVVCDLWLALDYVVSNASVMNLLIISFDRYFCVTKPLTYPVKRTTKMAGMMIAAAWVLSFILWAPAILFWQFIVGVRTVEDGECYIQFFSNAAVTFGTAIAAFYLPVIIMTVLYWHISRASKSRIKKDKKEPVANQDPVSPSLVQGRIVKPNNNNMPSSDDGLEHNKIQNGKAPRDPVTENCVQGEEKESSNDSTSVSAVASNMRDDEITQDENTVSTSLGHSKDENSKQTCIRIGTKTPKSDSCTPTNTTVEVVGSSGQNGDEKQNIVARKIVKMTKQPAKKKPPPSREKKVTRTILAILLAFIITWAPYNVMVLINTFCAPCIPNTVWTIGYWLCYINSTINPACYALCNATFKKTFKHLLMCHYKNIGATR
assay.overview: Functional M2-GIRK1/4 activation test: allosteric potency (EC50) and efficiency
measurement.setup: Receptor activity EC50, CHO-DUKX-M2-GIRK cells; acetylcholine at EC20; in some cases mean of two or more determinations
Please provide measured pEC50 for the entries that follow.
One number for each entry, as −log10 of the molar value.

{"compound": "O=C(NC(C(F)(F)F)C(F)(F)F)c1cn(-c2ncc(F)cc2F)c2nc(N3CCC[C@@H]3CO)ccc2c1=O", "pEC50": 7.05}

For each entry beneath this line, provide reported pEC50.
1. O=C(NC(C1CC1)C(F)(F)F)c1cn(-c2ncc(F)cc2F)c2nc(N3C[C@@H](O)[C@H](O)C3)ccc2c1=O (stereo partly shown)
2. CC(NC(=O)c1cn(-c2ncc(F)cc2F)c2nc(N3CC(CO)(CO)C3)ccc2c1=O)C(F)(F)C(F)(F)F (single isomer, unassigned)
3. CC(C)(NC(=O)c1cn(-c2ncc(F)cc2F)c2nc(N3CC4(COC4)C3)ccc2c1=O)C(F)(F)C(F)(F)F

A)
1. 6.80
2. 7.28
3. 6.39
